# assayed.system: glycine receptor of the NMDA receptor complex
# test.name: [3H]-glycine binding assay (Test A)
# cond: [3H]-glycine 20 nM, rat cortex/hippocampus membranes, pH 7.1, 30 min, 4° C.
readout.name: IC50 (nM)

[I] O=c1[nH][nH]c(=O)c2c(O)c3c(Cl)cc(Cl)cc3nc12 [Example 4]
[II] O=c1[nH][nH]c(=O)c2c(O)c3ccc(Cl)cc3nc12 [Example 2]
[III] O=c1[nH][nH]c(=O)c2c(O)c3ccc([N+](=O)[O-])cc3nc12 [Example 11]
**Query** # rank by IC50, ascending (min first) A ranking is expressed here by listing the labels in the requested order.
**Result** I, II, III
(I: 80 nM, II: 240 nM, III: 8500 nM)
